- experimental-target: Alpha-1B adrenergic receptor (Homo sapiens)
- Sequence (whole entry): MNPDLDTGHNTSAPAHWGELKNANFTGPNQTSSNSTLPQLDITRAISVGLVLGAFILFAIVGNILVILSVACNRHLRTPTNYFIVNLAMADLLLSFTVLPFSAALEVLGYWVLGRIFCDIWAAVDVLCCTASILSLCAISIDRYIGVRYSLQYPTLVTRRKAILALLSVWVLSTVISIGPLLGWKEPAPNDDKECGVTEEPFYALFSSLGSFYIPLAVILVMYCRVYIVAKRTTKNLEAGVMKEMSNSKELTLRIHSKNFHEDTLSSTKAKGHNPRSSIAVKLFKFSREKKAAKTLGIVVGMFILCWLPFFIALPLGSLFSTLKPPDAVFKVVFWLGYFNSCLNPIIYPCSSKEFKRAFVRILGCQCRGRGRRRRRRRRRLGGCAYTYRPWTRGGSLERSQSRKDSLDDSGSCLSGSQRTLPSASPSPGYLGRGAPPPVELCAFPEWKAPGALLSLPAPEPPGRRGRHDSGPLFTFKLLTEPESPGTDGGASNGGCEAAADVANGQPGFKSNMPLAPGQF
- condition: Compound concentration 10 µM; call rule not given here
Response enum: active, inactive

Example results:
C[C@@H](NCCc1ccc(O)cc1)[C@@H](O)c1ccc(O)cc1 (relative stereo) | inactive
Clc1cccc(COc2cncc(N3CCNCC3)n2)c1 | inactive
CCc1ccc(OCc2ccccc2C(=O)Nc2ccc3nc(C)cc(N)c3c2)cc1 | active
CN1CCC(=C2c3ccccc3CC(=O)c3sccc32)CC1 | inactive
Cc1ccccc1C(=O)Nc1ccc(C(=O)N2CCCC(O)c3cc(Cl)ccc32)c(C)c1 (stereo not given) | inactive
COc1ccc2[nH]cc(CCNC(C)=O)c2c1 | inactive
COc1ccc(C2(O)OC(=O)C(c3ccc4c(c3)OCO4)=C2Cc2cc(OC)c(OC)c(OC)c2)cc1 (stereo not given) | inactive
CN1CCN(c2ccc(Nc3c4ccccc4nc4ccccc34)cc2)CC1 | active
N#Cc1ccc(NC(=O)Nc2ccccc2Br)c2nn[nH]c12 | inactive
Cc1c(P(=S)(c2ccccc2)c2ccccc2)n2ccccc2[n+]1C/C=C/c1ccccc1 | inactive

Exercise: How did this test come out for `COc1ccc(Br)cc1S(=O)(=O)NC(=O)/C=C/c1ccccc1Cc1ccc2ccccc2c1` ?
Key: inactive

Exercise: How did this test come out for `O=S1(=O)c2cccc3cccc(c23)N1CCCN1CCN(c2ccc(F)cc2)CC1` ?
Key: active

Exercise: How did this test come out for Cc1c(OCc2cccc(-c3ccc(C(=O)O)cc3)c2)cc2c(c1C)C(=O)C(C1CCCC1)C2 (stereo not given) ?
Key: active

Exercise: How did this test come out for `CCCCC#Cc1nc(NC)c2ncn([C@@H]3O[C@H](CO)[C@@H](O)[C@H]3O)c2n1` ?
Key: inactive

Exercise: How did this test come out for `O=C(Cc1ccc(Cl)c(Cl)c1)N1CCCC[C@H]1CN1CCCC1` ?
Key: inactive

Exercise: How did this test come out for `CNC[C@H](O)c1cccc(O)c1` ?
Key: inactive

Exercise: How did this test come out for `Oc1ccc2c3c1O[C@H]1c4[nH]c5c(c4C[C@@]4(O)[C@@H](C2)N(CC2CC2)CC[C@]314)C[C@@]1(O)[C@H]2Cc3ccc(O)c4c3[C@@]1(CCN2CC1CC1)[C@H]5O4` ?
Key: inactive

Exercise: How did this test come out for `CNc1nc(NCc2ccc(NS(C)(=O)=O)cc2Cl)cc(-c2ccccn2)n1` ?
Key: inactive

Exercise: How did this test come out for `COc1ccc(NC(=O)c2ccc(-c3ccc(-c4noc(C)n4)cc3C)cc2)cc1OCCN(C)C` ?
Key: inactive

Exercise: How did this test come out for CN1CCCC(n2nc(Cc3ccc(Cl)cc3)c3ccccc3c2=O)CC1 (stereo not given) ?
Key: active

Exercise: How did this test come out for `CCOC(=O)c1cc(C#N)c(N2CCC(C(=O)NS(=O)(=O)Cc3ccccc3)CC2)nc1C` ?
Key: inactive

Exercise: How did this test come out for `O=C(O)Cn1c(C(=O)Nc2nc(-c3ccccc3Cl)cs2)cc2ccccc21` ?
Key: inactive

Exercise: How did this test come out for `Cc1cc(NC(=O)Nc2ccc(N(C)C)cc2)c2cc(F)cc(F)c2n1` ?
Key: inactive

Exercise: How did this test come out for `CC1(C)SSC(C)(C)[C@@H](NC(=O)[C@@H](N)Cc2ccc(O)cc2)C(=O)NCC(=O)N[C@@H](Cc2ccccc2)C(=O)N[C@H]1C(=O)O` ?
Key: inactive

Exercise: How did this test come out for `CC[C@@H]1CN2C(=O)N(C)c3nc(-c4ccccc4)[nH]c3C2=N1` ?
Key: inactive

Exercise: How did this test come out for `OC1(c2ccc(Cl)cc2)CCN(Cc2c[nH]c3ccccc23)CC1` ?
Key: inactive

Exercise: How did this test come out for `CCc1cc2c(cc1CC)CC(NC[C@H](O)c1ccc(O)c3[nH]c(=O)ccc13)C2` ?
Key: active

Exercise: How did this test come out for CC(C)NCC(O)c1ccc(N)c(C#N)c1 (stereo not given) ?
Key: inactive

Exercise: How did this test come out for `C[C@]1(C(=O)N(CCCC(=O)O)Cc2cccc(Cl)c2)CCN1C(=O)c1csc2ccccc12` ?
Key: inactive
